test system: ATP; assay: switch fluorescence ratio, 500 uM ATP over buffer (Cy3 cluster intensity, sum of 5 cycles each) (fold (ratio)); higher = stronger signal-on switching upon ATP binding; sequences stand for … in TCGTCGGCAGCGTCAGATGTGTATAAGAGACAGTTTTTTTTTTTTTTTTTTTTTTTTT…TC; conditions: aptamer strand: ATP DNA aptamer (quencher-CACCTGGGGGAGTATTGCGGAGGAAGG + anchor), 100 nM annealed; ATP concentration: 500 uM;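 also: ATP exposure 15 min at 22 °C before imaging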
Item-by-item account of switch fluorescence ratio
Please respond with just the number, no unit label.

Record excerpt, results attached:
INPUT_SEQUENCE	EXPERIMENTAL_ENDPOINT	MEASURED_NUMBER
TTTTGGCGCA	switch fluorescence ratio	1.01
TTTCTCAGAG	switch fluorescence ratio	0.995
AAGTTGCACC	switch fluorescence ratio	1
CATATGTTGA	switch fluorescence ratio	0.975
TAGAGTTAAG	switch fluorescence ratio	0.975

Summary for this sequence, `TTTTCAAGTA` : switch fluorescence ratio is 0.979

Summary for this sequence, `TAAAAGCTAA` : switch fluorescence ratio is 1

Summary for this sequence, `TTGGGTGGGA` : switch fluorescence ratio is 0.986

Summary for this sequence, `CAATTTTGGA` : switch fluorescence ratio is 1.01

Summary for this sequence, `TATGTTTTAT` : switch fluorescence ratio is 1.02

Summary for this sequence, `CATTAGATCG` : switch fluorescence ratio is 0.997
